# TARGET SYSTEM: T1, CXCL12 (CXC Ligand 12) (UniProt O62657 22-89)
# T1 construct: mature; Untagged in BLI and NMR; CXCL12-His6 was used at 1 µM on the HMGB1 SPOT peptide arrays; also called CXCL12A-c021, wt 1-67, no tag; CXCL12-His6
# T1 sequence (P48061 22-89): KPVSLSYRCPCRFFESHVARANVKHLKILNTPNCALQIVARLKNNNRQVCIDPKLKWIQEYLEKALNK
# METHOD: BLI, biotinylated HMGB1 construct on streptavidin sensor, CXCL12 0-150 µM in solution; kinetics rates derived from interferogram
Tick MET if kon is 10000 M⁻¹ s⁻¹ or greater. Tick NOT MET if kon is less than 10000 M⁻¹ s⁻¹.

Examples from the recorded data:
{"BINDER": "FR-HMGB1 Box B 89-174 (full HMG Box with flanking regions) (ligand, biotinylated in BLI and NMR, also called complete Box B; not shown: C-terminal biotinylation tag) SMKDPNAPKRPPSAFFLFCSEYRPKIKGEHPGLSIGDVAKKLGEMWNNTAADDKQPYEKKAAKLKEKYEKDIAAYRAKGKPDAAKKGV", "LABEL": "MET"}
{"BINDER": "FR-HMGB1 Box A 8-78 (helical-only) (ligand, biotinylated in BLI, also called minimal Box A 8-78; c027; not shown: biotinylation tag (BLI) or His6 tag (reverse peptide array)) PRGKMSSYAFFVQTCREEHKKKHPDASVNFSEFSKKCSERWKTMSAKEKGKFEDMAKADKARYEREMKTYI", "LABEL": "MET"}

Would you kindly look at the next entry?
Inquiry: // inclusive: kon at least 10000 M⁻¹ s⁻¹? input: fully-reduced HMGB1, full-length (1-214) (ligand, cysteines reduced (Cys 22, Cys 44, Cys 105), Tags differ by assay: biotinylated (c011) in BLI with CXCL12, His6-tagged in the reverse peptide array, TEV-cleaved in the RAGE ELISA and BLI; also called FR-HMGB1; FR FL-HMGB1 (c011)) GKGDPKKPRGKMSSYAFFVQTCREEHKKKHPDASVNFSEFSKKCSERWKTMSAKEKGKFEDMAKADKARYEREMKTYIPPKGETKKKFKDPNAPKRPPSAFFLFCSEYRPKIKGEHPGLSIGDVAKKLGEMWNNTAADDKQPYEKKAAKLKEKYEKDIAAYRAKGKPDAAKKGVVKAEKSKKKKEEEEDEEDEEDEEEEEDEEDEDEEEDDDDE
Reply text: NOT MET
